EXPERIMENTAL_SYSTEM: T1, recombinant human heat shock cognate 71 kDa protein (Hsc70) (human, UniProt P11142 1-646, limits assumed)
T1 construct: also called rhHsc70; human Hsc70
T1 sequence (P11142 whole entry): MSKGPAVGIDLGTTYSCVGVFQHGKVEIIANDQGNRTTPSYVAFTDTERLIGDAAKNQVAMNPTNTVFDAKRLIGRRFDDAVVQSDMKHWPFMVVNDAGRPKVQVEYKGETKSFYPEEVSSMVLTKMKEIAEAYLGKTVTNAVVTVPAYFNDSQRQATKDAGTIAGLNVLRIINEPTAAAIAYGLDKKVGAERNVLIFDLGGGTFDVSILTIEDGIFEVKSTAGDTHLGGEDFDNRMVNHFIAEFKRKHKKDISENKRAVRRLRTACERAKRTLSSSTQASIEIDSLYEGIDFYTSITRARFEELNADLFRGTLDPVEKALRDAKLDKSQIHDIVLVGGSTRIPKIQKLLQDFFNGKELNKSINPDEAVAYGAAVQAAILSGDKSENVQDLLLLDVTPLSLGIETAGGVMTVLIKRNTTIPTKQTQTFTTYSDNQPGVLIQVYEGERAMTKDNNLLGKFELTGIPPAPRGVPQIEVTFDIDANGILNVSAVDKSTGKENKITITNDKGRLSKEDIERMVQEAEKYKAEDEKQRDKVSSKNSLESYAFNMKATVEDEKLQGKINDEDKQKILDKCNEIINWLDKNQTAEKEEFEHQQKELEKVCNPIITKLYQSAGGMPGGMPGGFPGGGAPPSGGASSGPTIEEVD
PROTOCOL_NOTES: SEC of peptide-Hsc70 mixture; peptide:Hsc70 molar ratio 0.5:1
Given measured Percent complexation with Hsc70, output t if it is greater than or equal to 50% and f if not.

[
  {
    "BINDER": "FFRKNLLRLTW (Synthetic peptide) [PEP155]",
    "ASSIGNED_CLASS": "f"
  },
  {
    "BINDER": "FFRKNWLLLTW (Synthetic peptide) [PEP003]",
    "ASSIGNED_CLASS": "f"
  },
  {
    "BINDER": "FFRKNLLRLTG (Synthetic peptide) [PEP001]",
    "ASSIGNED_CLASS": "f"
  }
]

Does the binder FRNWLRLTW (Synthetic peptide) [PEP028] have recorded Percent complexation with Hsc70 that is 50% or more? f

Does the binder FFRKNWLRLTW (Synthetic peptide) [PEP006] have recorded Percent complexation with Hsc70 that is 50% or more? t

Does the binder FFRKNWLKLWK (Synthetic peptide) [PEP058] have recorded Percent complexation with Hsc70 that is 50% or more? f

Does the binder FFRKNWLKLTW (Synthetic peptide) [PEP012] have recorded Percent complexation with Hsc70 that is 50% or more? t

Does the binder FFRKNLLRWTG (Synthetic peptide) [PEP004] have recorded Percent complexation with Hsc70 that is 50% or more? f

Does the binder FFRKNRLLLTG (Synthetic peptide) [PEP002] have recorded Percent complexation with Hsc70 that is 50% or more? f

Does the binder FFRKNRLWLTG (Synthetic peptide) [PEP005] have recorded Percent complexation with Hsc70 that is 50% or more? f
